Assay: TG-DTA thermal analysis (elimination of X-Y on heating)
Type: physicochemical
Settings: temperature increase rate 5° C./min
Experimental: A TG-DTA measurement with respect to Example Compound 1 was performed using TG/DTA200 (manufactured by Seiko Instruments is Inc.). […] This was identical with the melting point of the following Example Compound 1-2 described in Japanese Patent Application Laid-Open (JP-A) No. 2011-44686.
Grouping key: mass reduction, found value. Bins: low: < 20%; moderate: ≥ 20% and < 30%; high: ≥ 30%

Consider the following illustrative entries.
>  <compound>
CCCCCC(=O)OC(Cc1ccccc1)c1cc2sc3cc4c(cc3c2s1)sc1cc(C(Cc2ccccc2)OC(=O)CCCCC)sc14 (stereo not shown) [Example Compound 2]

>  <label>
high

$$$$
>  <compound>
CCCCCCc1ccc(CC(OC(=O)C(C)=O)c2cc3sc4cc5c(cc4c3s2)sc2cc(C(Cc3ccc(CCCCCC)cc3)OC(=O)C(C)=O)sc25)cc1 (stereo not shown) [Example Compound 16]

>  <label>
moderate

$$$$

Q: Exercise: read the entry O=C(CCl)OC(Cc1ccccc1)c1cc2sc3cc4c(cc3c2s1)sc1cc(C(Cc2ccccc2)OC(=O)CCl)sc14 (stereo not shown) [Example Compound 14] and state which class it falls under.
A: moderate

Q: In plain terms, what class is COC(Cc1ccccc1)c1cc2sc3cc4c(cc3c2s1)sc1cc(C(Cc2ccccc2)OC)sc14 (stereo not shown) [Example Compound 12] ?
A: low

Q: Exercise: read the entry O=C(CCC(F)(F)F)OC(Cc1ccccc1)c1cc2sc3cc4c(cc3c2s1)sc1cc(C(Cc2ccccc2)OC(=O)CCC(F)(F)F)sc14 (stereo not shown) [Example Compound 15] and state which class it falls under.
A: high

---

experiment: Solubility in organic solvents; assay type: physicochemical; settings: solvent such as THF, toluene, chloroform, xylene, diethyl ether, or dichloromethane
measurement.name: solubility in solvent

>  <compound>
CC(C)(C)C(=O)OC(Cc1ccccc1)c1cc2sc3cc4c(cc3c2s1)sc1cc(C(Cc2ccccc2)OC(=O)C(C)(C)C)sc14 (stereo not drawn) [Example Compound 1]

>  <experimental.value>
easily dissolved

$$$$
>  <compound>
CCCCCCc1ccc(CC(OC(=O)C(C)=O)c2cc3sc4cc5c(cc4c3s2)sc2cc(C(Cc3ccc(CCCCCC)cc3)OC(=O)C(C)=O)sc25)cc1 (stereo not drawn) [Example Compound 16]

>  <experimental.value>
easily dissolved

$$$$
>  <compound>
O=C(CCl)OC(Cc1ccccc1)c1cc2sc3cc4c(cc3c2s1)sc1cc(C(Cc2ccccc2)OC(=O)CCl)sc14 (stereo not drawn) [Example Compound 14]

>  <experimental.value>
easily dissolved

$$$$

---

assay: TG-DTA thermal analysis (elimination of X-Y on heating); format: physicochemical; conditions: temperature increase rate 5° C./min
Below: a set of entries, each annotated with reported mass reduction, found value.
// return numeric value only (unit: %, not printed)

Sample records with mass reduction, found value:
>  <compound>
CCCCCC(=O)OC(Cc1ccc(C)cc1)c1cc2sc3cc4c(cc3c2s1)sc1cc(C(Cc2ccc(C)cc2)OC(=O)CCCCC)sc14 (centres unmarked) [Example Compound 4]

>  <mass reduction, found value (%)>
30.0

$$$$
>  <compound>
CCOC(=O)CC(=O)OC(Cc1ccccc1)c1cc2sc3cc4c(cc3c2s1)sc1cc(C(Cc2ccccc2)OC(=O)CC(=O)OCC)sc14 (centres unmarked) [Example Compound 13]

>  <mass reduction, found value (%)>
35.5

$$$$
>  <compound>
CC(C)(C)C(=O)OC(Cc1ccccc1)c1cc2sc3cc4c(cc3c2s1)sc1cc(C(Cc2ccccc2)OC(=O)C(C)(C)C)sc14 (centres unmarked) [Example Compound 1]

>  <mass reduction, found value (%)>
29.7

$$$$
>  <compound>
O=C(CC(F)(F)F)OC(Cc1ccccc1)c1cc2sc3cc4c(cc3c2s1)sc1cc(C(Cc2ccccc2)OC(=O)CC(F)(F)F)sc14 (centres unmarked) [Example Compound 3]

>  <mass reduction, found value (%)>
32.6

$$$$
>  <compound>
CCCCCCc1ccc(CC(OC(C)=O)c2cc3sc4cc5c(cc4c3s2)sc2cc(C(Cc3ccc(CCCCCC)cc3)OC(C)=O)sc25)cc1 (centres unmarked) [Example Compound 6]

>  <mass reduction, found value (%)>
15.1

$$$$

Q: Note mass reduction, found value for the compound shown: CCCCCCc1ccc(CC(O)c2cc3sc4cc5c(cc4c3s2)sc2cc(C(O)Cc3ccc(CCCCCC)cc3)sc25)cc1 (centres unmarked) [Example Compound 7]
A: 4.0

Q: Supply recorded mass reduction, found value for CC(=O)OC(Cc1ccc(C)cc1)c1cc2sc3cc4c(cc3c2s1)sc1cc(C(Cc2ccc(C)cc2)OC(C)=O)sc14 (centres unmarked) [Example Compound 5] here.
A: 17.9

Q: Please list mass reduction, found value recorded for the compound CCCCCOC(=O)OC(Cc1ccccc1)c1cc2sc3cc4c(cc3c2s1)sc1cc(C(Cc2ccccc2)OC(=O)OCCCCC)sc14 (centres unmarked) [Example Compound 11]
A: 33.3

Q: Note down mass reduction, found value recorded for CCCCCC(=O)OC(Cc1ccc(-c2ccc(C)cc2)cc1)c1cc2sc3cc4c(cc3c2s1)sc1cc(C(Cc2ccc(-c3ccc(C)cc3)cc2)OC(=O)CCCCC)sc14 (centres unmarked) [Example Compound 18]
A: 24.2

Q: Query mass reduction, found value for CC(=O)CC(=O)OC(Cc1ccccc1)c1cc2sc3cc4c(cc3c2s1)sc1cc(C(Cc2ccccc2)OC(=O)CC(C)=O)sc14 (centres unmarked) [Example Compound 24]
A: 25.7

Q: Assign mass reduction, found value to the following record: Cc1ccc(-c2ccc(CC(O)c3cc4sc5cc6c(cc5c4s3)sc3cc(C(O)Cc4ccc(-c5ccc(C)cc5)cc4)sc36)cc2)cc1 (centres unmarked) [Example Compound 17]
A: 4.0
